target: T1, CD3 epsilon homodimer protein (UniProt P07766 23-126); assay: SPR Biacore T200, CD3e homodimer on chip, vs unaltered GLS3000 antibody
T1 construct: also called CD3 (CD3 epsilon)
T1 sequence (P07766 23-126): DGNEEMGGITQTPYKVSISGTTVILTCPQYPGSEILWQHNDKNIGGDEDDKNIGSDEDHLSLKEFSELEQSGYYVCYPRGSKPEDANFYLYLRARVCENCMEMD
measurement.type: ratio of amounts bound (Z=Y/X)
Give a plain numeric answer without units written out.

{"binder": "GLS3000 T92L (antibody, name in Kabat numbering, V domains shown, one-arm IgG as m2) VH: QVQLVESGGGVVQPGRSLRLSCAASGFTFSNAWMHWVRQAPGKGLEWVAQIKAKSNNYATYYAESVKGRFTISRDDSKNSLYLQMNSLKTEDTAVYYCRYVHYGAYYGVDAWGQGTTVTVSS VL: DIVMTQSPLSLPVTPGEPASISCRSSQSLVHSNRNTYLHWYQQKPGQAPRLLIYKVSNRFSGVPDRFSGSGSGTDFTLKISRVEAEDVGVYYCGQGLQVPYTFGQGTKLEIK", "ratio of amounts bound (Z=Y/X)": 0.42}
{"binder": "GLS3000 N30L (antibody, name in Kabat numbering, V domains shown, one-arm IgG as m2) VH: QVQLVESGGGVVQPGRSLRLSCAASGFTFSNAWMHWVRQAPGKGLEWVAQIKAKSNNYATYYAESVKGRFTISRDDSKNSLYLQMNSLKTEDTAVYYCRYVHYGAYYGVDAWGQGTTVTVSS VL: DIVMTQSPLSLPVTPGEPASISCRSSQSLVHSNRLTYLHWYQQKPGQAPRLLIYKVSNRFSGVPDRFSGSGSGTDFTLKISRVEAEDVGVYYCGQGTQVPYTFGQGTKLEIK", "ratio of amounts bound (Z=Y/X)": 0.7}

The binder listed as GLS3000 V94N (antibody, name in Kabat numbering, V domains shown, one-arm IgG as m2) VH: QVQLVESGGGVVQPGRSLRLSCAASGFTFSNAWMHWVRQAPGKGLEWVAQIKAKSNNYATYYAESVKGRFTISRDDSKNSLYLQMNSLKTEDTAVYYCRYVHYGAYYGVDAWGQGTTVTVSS VL: DIVMTQSPLSLPVTPGEPASISCRSSQSLVHSNRNTYLHWYQQKPGQAPRLLIYKVSNRFSGVPDRFSGSGSGTDFTLKISRVEAEDVGVYYCGQGTQNPYTFGQGTKLEIK has a reported ratio of amounts bound (Z=Y/X) of 1.05

# ratio of amounts bound (Z=Y/X) of GLS3000 N53E (antibody, name in Kabat numbering, V domains shown, one-arm IgG as m2) VH: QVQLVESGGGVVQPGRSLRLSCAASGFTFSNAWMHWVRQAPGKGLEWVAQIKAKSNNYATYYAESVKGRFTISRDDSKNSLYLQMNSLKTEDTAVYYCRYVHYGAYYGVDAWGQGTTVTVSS VL: DIVMTQSPLSLPVTPGEPASISCRSSQSLVHSNRNTYLHWYQQKPGQAPRLLIYKVSERFSGVPDRFSGSGSGTDFTLKISRVEAEDVGVYYCGQGTQVPYTFGQGTKLEIK = 0.54

FYI, the data here is from patent US20210388087A1.
